target: Receptor-interacting protein kinase 1 (RIPK1) (Homo sapiens, UniProt Q13546); construct: with VHL; test: cell-based; design: HiBiT luminescence of CRISPR-tagged endogenous RIPK1 (C-terminal HiBiT) after PROTAC treatment; degradation DC50 and Dmax; conditions: HEK293T-RIPK1-HiBiT cells; read-out: Dmax (HEK293T-RIPK1-HiBiT cell line)
Sequence (Q13546 whole entry): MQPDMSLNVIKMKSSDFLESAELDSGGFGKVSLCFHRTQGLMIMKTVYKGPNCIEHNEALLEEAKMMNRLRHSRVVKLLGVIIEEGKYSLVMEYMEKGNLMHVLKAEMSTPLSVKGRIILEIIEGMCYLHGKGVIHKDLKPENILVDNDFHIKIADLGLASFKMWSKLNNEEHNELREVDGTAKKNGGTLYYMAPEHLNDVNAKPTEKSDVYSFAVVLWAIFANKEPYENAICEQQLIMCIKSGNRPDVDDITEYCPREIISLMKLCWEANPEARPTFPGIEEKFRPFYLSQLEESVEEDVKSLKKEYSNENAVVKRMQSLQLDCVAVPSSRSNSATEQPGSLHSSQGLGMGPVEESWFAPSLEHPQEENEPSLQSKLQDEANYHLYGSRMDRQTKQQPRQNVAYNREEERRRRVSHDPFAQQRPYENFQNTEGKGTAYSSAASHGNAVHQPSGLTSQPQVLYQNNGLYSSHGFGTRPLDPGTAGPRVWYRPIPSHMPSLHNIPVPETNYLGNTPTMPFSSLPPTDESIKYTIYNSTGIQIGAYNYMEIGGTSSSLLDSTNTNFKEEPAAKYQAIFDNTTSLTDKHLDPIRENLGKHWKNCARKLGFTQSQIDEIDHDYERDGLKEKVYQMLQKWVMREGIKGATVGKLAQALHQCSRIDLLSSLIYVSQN
Sequence (P40337 whole entry partner): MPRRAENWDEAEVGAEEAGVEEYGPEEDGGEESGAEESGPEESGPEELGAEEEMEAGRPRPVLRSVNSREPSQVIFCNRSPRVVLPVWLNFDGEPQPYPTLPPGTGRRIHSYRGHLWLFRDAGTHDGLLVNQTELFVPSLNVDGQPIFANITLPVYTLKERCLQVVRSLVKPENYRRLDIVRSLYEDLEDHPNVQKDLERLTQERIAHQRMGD
Rule: Dmax below 80% gives YES, anything at or above gives NO.

State whether 80% exceeds Dmax recorded for Cc1ncsc1-c1ccc([C@H](C)NC(=O)[C@@H]2C[C@@H](O)CN2C(=O)[C@@H](NC(=O)CCCCOc2ccc(CNC(=O)Cn3cc(-c4cnc(N)c5c(-c6ccc7c(c6)CCN7C(=O)Cc6ccccc6)csc45)cn3)cc2)C(C)(C)C)cc1 .
NO

State whether 80% exceeds Dmax recorded for Cc1ncsc1-c1ccc([C@H](C)NC(=O)[C@@H]2C[C@@H](O)CN2C(=O)[C@@H](NC(=O)COc2ccc(CNC(=O)Cn3cc(-c4cnc(N)c5c(-c6ccc7c(c6)CCN7C(=O)Cc6ccccc6)csc45)cn3)cc2)C(C)(C)C)cc1 .
YES

State whether 80% exceeds Dmax recorded for Cc1ncsc1-c1ccc([C@H](C)NC(=O)[C@@H]2C[C@@H](O)CN2C(=O)[C@@H](NC(=O)COCCOCCOCCNC(=O)Cn2cc(-c3cnc(N)c4c(-c5ccc6c(c5)CCN6C(=O)Cc5ccccc5)csc34)cn2)C(C)(C)C)cc1 .
YES

State whether 80% exceeds Dmax recorded for Cc1ncsc1-c1ccc([C@H](C)NC(=O)[C@@H]2C[C@@H](O)CN2C(=O)[C@@H](NC(=O)CCN2CCN(C(=O)CNC(=O)Cn3cc(-c4cnc(N)c5c(-c6ccc7c(c6)CCN7C(=O)Cc6ccccc6)csc45)cn3)CC2)C(C)(C)C)cc1 .
YES

State whether 80% exceeds Dmax recorded for Cc1ncsc1-c1ccc([C@H](C)NC(=O)[C@@H]2C[C@@H](O)CN2C(=O)[C@@H](NC(=O)CCN2CCN(CCNC(=O)Cn3cc(-c4cnc(N)c5c(-c6ccc7c(c6)CCN7C(=O)Cc6ccccc6)csc45)cn3)CC2)C(C)(C)C)cc1 .
YES

State whether 80% exceeds Dmax recorded for Cc1ncsc1-c1ccc([C@H](C)NC(=O)[C@@H]2C[C@@H](O)CN2C(=O)[C@@H](NC(=O)CCCOc2ccc(NC(=O)Cn3cc(-c4cnc(N)c5c(-c6ccc7c(c6)CCN7C(=O)Cc6ccccc6)csc45)cn3)cc2)C(C)(C)C)cc1 .
NO

State whether 80% exceeds Dmax recorded for Cc1ncsc1-c1ccc([C@H](C)NC(=O)[C@@H]2C[C@@H](O)CN2C(=O)[C@@H](NC(=O)CCCCCCNC(=O)Cn2cc(-c3cnc(N)c4c(-c5ccc6c(c5)CCN6C(=O)Cc5ccccc5)csc34)cn2)C(C)(C)C)cc1 .
NO
